experiment: Approximate solubility of Form I by stepwise dilution of a suspension; assay type: physicochemical; settings: acetic acid, organic solvent or mixture, thermodynamic from solid; read-out: Solubility [S, mg/mL]
Assay metric: solubility

QUERY: Can you share its solubility? I mean this compound: CC#CC(=O)N1CCC[C@H]1c1nc(-c2ccc(C(=O)Nc3ccccn3)cc2)c2c(N)nccn12 [Form I]
RESULT: 102 to 204 mg/mL

* * *

experiment: Approximate solubility of Form I by stepwise dilution of a suspension; format: physicochemical; details: ethanol, organic solvent or mixture, thermodynamic from solid; read-out: Solubility [S, mg/mL]
Assay metric: solubility

QUERY: Can you share its solubility? I mean this compound: CC#CC(=O)N1CCC[C@H]1c1nc(-c2ccc(C(=O)Nc3ccccn3)cc2)c2c(N)nccn12 [Form I]
RESULT: ~3 mg/mL
